pKi: −log10 of the molar value.
pKi values recorded for UniProt:P48039
quantity: pKi

- compound: "COc1cccc(Oc2ccc(NC(C)=O)cc2)c1"
  measurement target: "UniProt:P48039"
  pKi: 7.08
- compound: "COc1cccc(N(C)c2ccc(NC(C)=O)cc2)c1"
  measurement target: "UniProt:P48039"
  pKi: 10.30
- compound: "CCCC(=O)Nc1ccc(Oc2cccc3c2CCO3)cc1"
  measurement target: "UniProt:P48039"
  pKi: 7.74

(I) C/C=C/C(=O)Nc1ccc(Oc2cccc(OC)c2)cc1
(II) CCC(=O)Nc1ccc(Nc2cccc(OC)c2)cc1
Exercise: Just curious, which one has the larger pKi reading, I or II ? Answer format: the label of the selected item.
Solution: II
(II: 7.21, I: 7.01)

* * *

Protein target, amino acids: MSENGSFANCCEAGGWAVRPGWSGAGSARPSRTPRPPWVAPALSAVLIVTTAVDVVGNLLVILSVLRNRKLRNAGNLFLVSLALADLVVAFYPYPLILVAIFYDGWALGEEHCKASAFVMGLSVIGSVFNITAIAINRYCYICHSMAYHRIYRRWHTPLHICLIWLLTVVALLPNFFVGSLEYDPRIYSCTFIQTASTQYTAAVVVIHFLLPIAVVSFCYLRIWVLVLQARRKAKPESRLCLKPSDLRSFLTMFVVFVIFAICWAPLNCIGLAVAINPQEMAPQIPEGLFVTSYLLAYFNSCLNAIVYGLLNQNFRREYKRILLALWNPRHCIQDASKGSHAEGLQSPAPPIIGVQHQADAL
pKi: −log10 of the molar value.
quantity: pKi

- compound: "COc1cccc(Oc2ccc(NC(C)=O)cc2)c1"
  pKi: 8.39
- compound: "COc1cccc(Nc2ccc(NC(=O)C3CC3)cc2)c1"
  pKi: 7.19

(1) COc1cccc(Nc2ccc(NC(=O)C(C)C)cc2)c1
(2) CCCC(=O)Nc1ccc(N(C)c2cccc(OC)c2)cc1
(3) CCCC(=O)Nc1ccc(C(=O)c2cccc(OC)c2)cc1
(4) COCC(=O)Nc1ccc(Oc2cccc(OC)c2)cc1
(5) CCCC(=O)Nc1ccc(Nc2cccc(OC)c2)cc1
Exercise: Please list these compounds in decreasing order of pKi. Respond with the label ranking, as requested.
Solution: 2, 5, 4, 3, 1

* * *

Target: Melatonin receptor type 1A (Homo sapiens)
Sequence (P48039 whole entry): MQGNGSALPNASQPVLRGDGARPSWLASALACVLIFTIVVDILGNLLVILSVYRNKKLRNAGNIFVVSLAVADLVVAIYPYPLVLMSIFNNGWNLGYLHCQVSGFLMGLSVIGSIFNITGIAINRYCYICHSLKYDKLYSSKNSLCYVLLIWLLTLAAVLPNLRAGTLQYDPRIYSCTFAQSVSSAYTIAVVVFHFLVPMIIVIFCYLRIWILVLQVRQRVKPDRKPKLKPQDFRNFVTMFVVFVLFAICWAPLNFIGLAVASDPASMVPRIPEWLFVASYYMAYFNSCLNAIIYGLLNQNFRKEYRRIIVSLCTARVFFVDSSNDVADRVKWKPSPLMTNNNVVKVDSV
quantity: Ki

Solved entries (count: 3):
- compound: "CCCC(=O)Nc1ccc(Nc2cccc3c2CCO3)cc1"
  measurement target: "Melatonin receptor type 1A (Homo sapiens)"
  Ki: "> 500 nM"
- compound: "CCCC(=O)Nc1ccccc1Oc1cccc(OC)c1"
  measurement target: "Melatonin receptor type 1A (Homo sapiens)"
  Ki: "> 500 nM"
- compound: "COc1cccc(Oc2ccc(NC(=O)CC(C)C)cc2)c1"
  measurement target: "Melatonin receptor type 1A (Homo sapiens)"
  Ki: "> 500 nM"

Exercise: Look up Ki: CCOC(=O)Nc1ccc(Nc2cccc(OC)c2)cc1
Solution: > 500 nM

Exercise: Likewise for COc1cccc(Oc2ccc(NC(=O)C3CC3)cc2)c1 ?
Solution: 99 nM

Exercise: Try the molecule COc1cccc(Nc2ccc(NC(=O)C(C)C)cc2)c1
Solution: > 500 nM

Exercise: And what about the molecule COc1cccc(Nc2ccc(NC(C)=O)cc2)c1 ?
Solution: 84 nM

Origin of the recorded values: ChEMBL document CHEMBL1146665
